The following compounds were reported with pIC50 values on PDE1B (Homo sapiens (Human)) in different studies.
pIC50 (log units): -log10 of the concentration in mol/L.

For orientation, consider the following solved cases.
CCOc1ncc(C#N)cc1-c1cc(N[C@@H]2CCOC2)c2c(cnn2C(C)C)n1; 5.86
CCC1(Nc2ncnc3c(OC)c(OC)ccc23)CCOC1 (stereo not shown); 7.20
Cc1cccc(-c2ccc(Cc3cc4c(cnn4C4CCOCC4)c(=O)n3C)cc2)n1; 7.49
CCOc1ncccc1-c1cc(N2CCCC2)c2c(cnn2C(C)C)n1; 7.08
COc1cc(-c2cc(N[C@@H]3CCOC3)c3c(cnn3C(C)C)n2)c(OC)cn1; 6.51

Request: Quote pIC50 with test system PDE1B (Homo sapiens (Human)) for COc1ncc(C)cc1-c1cc(N[C@@H]2CCOC2)c2c(cnn2C(C)C)n1
Result: 5.88

Request: Quote pIC50 with test system PDE1B (Homo sapiens (Human)) for CC(C)c1ncc2c(=O)n(C)c(Cc3ccc(-c4cccc(F)n4)cc3)cn12
Result: 7.89

Request: Quote pIC50 with test system PDE1B (Homo sapiens (Human)) for COc1ccc(Cn2c(C)nn3c(C4CCOCC4)ncc3c2=O)cc1
Result: 7.59

Request: Quote pIC50 with test system PDE1B (Homo sapiens (Human)) for CO[C@H]1CC[C@H](Cn2c(C)cn3c(C4CCOCC4)ncc3c2=O)CC1
Result: 6.90

Request: Quote pIC50 with test system PDE1B (Homo sapiens (Human)) for O=c1c2cnc(C3CC3)n2ccn1CC1CCCCCC1
Result: 7.30

Request: Quote pIC50 with test system PDE1B (Homo sapiens (Human)) for Cc1cn2c(C3CCOCC3)ncc2c(=O)n1Cc1ccccc1F
Result: 7.44

Request: Quote pIC50 with test system PDE1B (Homo sapiens (Human)) for COc1ccc(Cn2c(C)cn3c(C4CCNC(=O)CC4)ncc3c2=O)cc1 (stereo not shown)
Result: 6.51

====

The following compounds were reported with pIC50 values on PDE1B (Homo sapiens (Human), UniProt Q01064) in different studies.
pIC50: −log10 of the molar value.
Each entry gets not satisfied if its pIC50 stays under 7, and satisfied if its pIC50 is 7 or above.

CCOc1ncccc1-c1cc(NC2CCOC2)c2c(cnn2C2COC2)n1 (racemic); not satisfied
CCOc1ncccc1-c1cc(N2CC[C@@H](OC)C2)c2c(cnn2C)n1; not satisfied
COc1ccc(Cn2c(CC3CCCC3)cn3c(C4CCOCC4)ncc3c2=O)cc1; satisfied
CCCCn1c(=O)c2nnc(C3(C)CC3)n2c2ncc(CC)cc21; satisfied
Cc1cn2c(C3(F)CCOCC3)ncc2c(=O)n1Cc1cccc(F)c1; not satisfied

Request: Does the compound COC1(c2ncc3c(=O)n(Cc4cccc(F)c4)c(C)cn23)CCOCC1 have recorded pIC50 that is 7 or more?
Result: not satisfied

Request: Does the compound Cc1ccc(Cc2nn3c(C4CCOCC4)ncc3c(=O)n2C)cc1 have recorded pIC50 that is 7 or more?
Result: not satisfied

====

The following compounds were reported with pIC50 values on PDE1B (Homo sapiens (Human)) in different studies.
pIC50 (log units): -log10 of the concentration in mol/L.

For orientation, consider the following solved cases.
COc1cccnc1-c1cc(N[C@@H]2CCOC2)c2c(cnn2C(C)C)n1; 5.67
CCn1c(Cc2ccc(C)cc2)nn2c(C3CCOCC3)ncc2c1=O; 7.10
COc1ncccc1-c1cc(N[C@@H]2CCOC2)c2c(cnn2C(C)C)n1; 6.91

Switching to the query record.
Request: Quote pIC50 with test system PDE1B (Homo sapiens (Human)) for COc1ccc2c(N[C@@H]3COC[C@@H]3O)ncnc2c1OC (relative stereo)
Result: 6.08

====

The following compounds were reported with pIC50 values on PDE1B (Homo sapiens (Human), UniProt Q01064) in different studies.
pIC50 (log units): -log10 of the concentration in mol/L.

For orientation, consider the following solved cases.
Cc1nn2c(C3CCOCC3)ncc2c(=O)n1Cc1ccccc1F; 6.86
CCOc1ncccc1-c1ccn2c(C3(C)COC3)nc(C)c2n1; 6.62
CCOc1ccccc1-c1cc(N[C@@H]2CCOC2)c2c(cnn2C(C)C)n1; 6.52
CO[C@H]1CC[C@@H](Cn2c(C)cn3c(C4CCOCC4)ncc3c2=O)CC1; 7.06
O=c1c2cnc(C3CCOCC3)n2cc(Cc2ccccc2)n1Cc1cccc(F)c1; 7.85
O=c1c2cnc(C3CCOCC3)n2cc(Br)n1Cc1cccc(F)c1; 6.94
Cc1cn2c(C3CCOCC3)ncc2c(=O)n1CC1CCCCC1; 7.60
CCOc1ncccc1-c1cc(N2CCCC2)c2c(cnn2C2CCOC2)n1 (racemic); 6.26

Switching to the query record.
Request: Specify measured pIC50 for CC(C)n1ncc2nc(-c3cccc4c3OCO4)cc(N[C@@H]3CCOC3)c21 .
Result: 6.55

====

The following compounds were reported with IC50 values on PDE1B (Homo sapiens (Human), UniProt Q01064) in different studies.
Rule: IC50 below 200 nM gives yes. Equal to or above 200 nM gives no.

Example cases with answers are listed next.
Cc1cccnc1-c1cc(N[C@@H]2CCOC2)c2c(cnn2C(C)C)n1; no
Cc1ccc(Cc2nn3c(C4CCOCC4)ncc3c(=O)n2CC2CCCCC2)cc1; yes
COc1ccc(Cn2c(C)cn3c(C4(C)CNC(=O)C4)ncc3c2=O)cc1 (stereo not drawn); no
CCCn1c(C)cn2c(C3CCOCC3)ncc2c1=O; no
CCOc1nnccc1-c1cc(NCc2cnn(C)c2)c2c(n1)c(C)nn2C(C)CC (single isomer, unassigned); yes

Request: Does Cc1nn2c(C3CCOCC3)ncc2c(=O)n1Cc1ccccc1Cl have IC50 strictly under 200 nM?
Result: no

Request: Does CCCCn1c(=O)c2nnc(C3(C4CC4)CC3)n2c2ncc(C(C)C)cc21 have IC50 strictly under 200 nM?
Result: yes

Request: Does CCOc1ncccc1-c1cc(NC[C@H]2CCCO2)c2c(cnn2C(C)C)n1 have IC50 strictly under 200 nM?
Result: yes

Request: Does CCOc1ncccc1-c1cc(NC)c2c(n1)c(C)nn2C(C)C have IC50 strictly under 200 nM?
Result: yes

====

The following molecules were reported with IC50 values on UniProt:Q01064 in different studies.
Rule: IC50 below 0.04 µM gives Criterion met. Equal to or above 0.04 µM gives Criterion not met.

Cc1cn2c(C3CCOCC3)ncc2c(=O)n1Cc1ccc(F)cc1; Criterion not met

Request: Does CC1OCCC1c1ncc2c(=O)n(C)c(Cc3ccc(-c4cccc(F)n4)cc3)cn12 (single isomer, unassigned; isomer 4) have IC50 strictly under 0.04 µM?
Result: Criterion met

Request: Does COc1ccccc1-c1nc2c(C)nn(C(C)C)c2cc1C have IC50 strictly under 0.04 µM?
Result: Criterion not met

Request: Does COc1cnccc1-c1cc(N[C@@H]2CCOC2)c2c(cnn2C(C)C)n1 have IC50 strictly under 0.04 µM?
Result: Criterion not met

Request: Does Cc1cn2c(C3CCOCC3)ncc2c(=O)n1Cc1ccc(OC2CC2)cc1 have IC50 strictly under 0.04 µM?
Result: Criterion not met

Request: Does CCN(c1ncnc2c(OC)c(OC)ccc12)[C@H]1CCOC1 have IC50 strictly under 0.04 µM?
Result: Criterion not met

Request: Does CCOc1ncccc1-c1cc(NCC2CC(=O)N(C)C2)c2c(n1)c(C)nn2C(C)C (stereo not drawn) have IC50 strictly under 0.04 µM?
Result: Criterion met

Request: Does Cn1c(Cc2ccc(-c3cccc(C(F)F)n3)cc2)cn2c(C3CCOCC3)ncc2c1=O have IC50 strictly under 0.04 µM?
Result: Criterion met

Request: Does COc1ccc(Cn2c(C)cn3c(C4CCc5ccc(Cl)cc54)ncc3c2=O)cc1 (stereo not drawn) have IC50 strictly under 0.04 µM?
Result: Criterion met

Request: Does CC(=O)Nc1ccc(Cn2c(C)cn3c(C4CCOCC4)ncc3c2=O)cc1 have IC50 strictly under 0.04 µM?
Result: Criterion not met

Request: Does Cc1cccc(-c2ccc(Cc3cn4c(C5CCOCC5)ncc4c(=O)n3C)cc2)n1 have IC50 strictly under 0.04 µM?
Result: Criterion met

====

The following molecules were reported with pIC50 values on PDE1B (Homo sapiens (Human)) in different studies.
pIC50: −log10 of the molar value.
Each entry gets False if its pIC50 stays under 7, and True if its pIC50 is 7 or above.

Example cases with answers are listed next.
O=c1c2cnc(C3CCOCC3)n2ncn1CC1CCCCC1; False
Cc1cn2c(C3CCOCC3)ncc2c(=O)n1Cc1ccc(OC(F)F)cc1; True
COc1nc(C)ccc1-c1cc(N[C@@H]2CCOC2)c2c(cnn2C(C)C)n1; False
Cc1cn2c(C3CCOCC3)ncc2c(=O)n1Cc1ccccc1C#N; False
Cc1nn2c(C3CCOCC3)ncc2c(=O)n1Cc1cccc(F)c1; False
Cc1cn2c(C3CCOCC3)ncc2c(=O)n1Cc1ccc(Cl)cc1; True

Request: Does the molecule CCCCn1c(=O)c2nnc(C3(C4CC4)CC3)n2c2ncc(C)cc21 have recorded pIC50 that is 7 or more?
Result: True

Request: Does the molecule COc1ccc(Cn2c(C)cn3c(C4CCOCC4)ncc3c2=O)cc1Cl have recorded pIC50 that is 7 or more?
Result: True

Request: Does the molecule CCOc1ncccc1-c1nc2c(C)nn(C(C)C)c2cc1C have recorded pIC50 that is 7 or more?
Result: True

Request: Does the molecule Cc1cn2c(C3CCOCC3)ncc2c(=O)n1Cc1cscn1 have recorded pIC50 that is 7 or more?
Result: False

Request: Does the molecule COCc1ncccc1-c1cc(N[C@@H]2CCOC2)c2c(cnn2C(C)C)n1 have recorded pIC50 that is 7 or more?
Result: False

Request: Does the molecule COc1ccc2c(NC3CCOC3)ncnc2c1OC (racemic) have recorded pIC50 that is 7 or more?
Result: False

Request: Does the molecule CC(C)n1ncc2nc(-c3cccc(OC(F)F)c3)cc(N[C@@H]3CCOC3)c21 have recorded pIC50 that is 7 or more?
Result: False

Request: Does the molecule COc1ncc(C#N)cc1-c1cc(N[C@@H]2CCOC2)c2c(cnn2C(C)C)n1 have recorded pIC50 that is 7 or more?
Result: False
